Known pKd of a selection of binders
- tested_target: SCRIB_3, Q14160
- Sequence (Q14160 999-1103): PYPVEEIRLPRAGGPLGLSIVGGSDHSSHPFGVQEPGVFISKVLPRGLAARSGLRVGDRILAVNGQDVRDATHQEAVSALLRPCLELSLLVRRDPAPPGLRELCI
- test: holdup assay
- Design: key: below the threshold = too weak to quantify, mostly under pKd 3.1 to 4
- condition_parameters: plain residues with an end cap or a label only (N-terminal biotin on a linker: ahx)
No unit in the answer, only the number.

Below, each entry is followed by its recorded pKd result.
KDECVIATEV [DLL1, O00548] : 4.11
PKMKLNETSF [SHKBP1, Q8TBC3] : 4.49
KEYDDELTFF [USH1C, Q9Y6N9] : 3.61
HSATSVHTSV [MTMR1, Q13613] : 3.74
YNSFLSVTTV [PDZRN3, Q9UPQ7] : 3.64
VNENQKEYFF [CNTNAP4, Q9C0A0] : 3.7

Looking up AKPQPVDSWV [ARVCF, O00192] , I see its pKd listed as 3.95

All values here come from paper PMC9482650.
